- Tested on: CP335
- testName: qHTS profiling for inhibitors of Plasmodium falciparum proliferation (AID 504749); further: nearly all actives have a fitted effect of over 60% in size
- assayContext: P. falciparum in erythrocytes, SYBR Green DNA, 72 h; series mostly up to 12.8 µM
- Procedure: NIH National Institute of Allergy and Infectious Diseases [NIAID] NIH Chemical Genomics Center [NCGC] […] Because mature erythrocytes lack DNA, only Plasmodium-derived DNA is detected. NCGC Assay Protocol Summary: The SYBR Green viability assay was adapted from a method described previously (Plouffe et al., 2008). […] The following morning, fluorescence intensity at 485(14) nm excitation and 535(25) nm emission wavelengths was measured on an EnVision (Perkin Elmer) plate reader. […]
Inconclusive results are not listed. Calls of active or inactive are those of the source. The call rests on the fitted dose curve; in most records, active means well fitted inhibition curve with a large enough effect; inconclusive means small, poorly fitted or top-dose-only effect; inactive means flat fitted curve, though single readings scatter.
Give your call using only these classes: YES = active, NO = inactive

Example results:
compound=CNC[C@H](O)c1ccc(OC(=O)C(C)(C)C)c(OC(=O)C(C)(C)C)c1 experimentaltarget=CP335 grouplabel=NO
compound=COCC(=O)Nc1c(I)c(C(=O)NC[C@@H](O)CO)c(I)c(C(=O)N(C)C[C@@H](O)CO)c1I experimentaltarget=CP335 grouplabel=NO
compound=C#C[C@]1(O)CC[C@@H]2[C@H]3CCC4=CCCC[C@@H]4[C@@H]3CC[C@@]21C experimentaltarget=CP335 grouplabel=NO
compound="CN(C)CCc1c[nH]c2ccc(CC3COC(=O)N3)cc12 (stereo not given)" experimentaltarget=CP335 grouplabel=NO
compound="CC(C)C1CCC(C(=O)NC(Cc2ccccc2)C(=O)O)CC1 (stereo not given)" experimentaltarget=CP335 grouplabel=NO

Exercise: GET /call?item= CC1(C)[C@@H](OC(=O)CCC(=O)O)CC[C@@]2(C)[C@H]1CC[C@@]1(C)[C@H]2C(=O)C=C2[C@H]3C[C@](C)(C(=O)O)CC[C@]3(C)CC[C@@]21C returns the recorded outcome of this test.
Solution: NO

Exercise: GET /call?item= C=CC1=C(C(=O)O)N2C(=O)[C@@H](NC(=O)/C(=N\OCC(=O)O)c3csc(N)n3)[C@@H]2SC1 returns the recorded outcome of this test.
Solution: NO

Exercise: GET /call?item= CC=C(/C(=C/C)c1ccc(O)cc1)c1ccc(O)cc1 returns the recorded outcome of this test.
Solution: NO

Exercise: GET /call?item= O[C@@](CCN1CCCC1)(c1ccccc1)C1CCCCC1 returns the recorded outcome of this test.
Solution: NO

Exercise: GET /call?item= CCC(C)C(=O)OC1CC(O)C=C2C=CC(C)C(CCC(O)CC(O)CC(=O)O)C21 (stereo not given) returns the recorded outcome of this test.
Solution: NO

Exercise: GET /call?item= CC(=O)OC1CCC2C3CCc4cc(O)ccc4C3CCC12C (stereo not given) returns the recorded outcome of this test.
Solution: NO

* * *

- Test system: W2
- testName: qHTS profiling for inhibitors of Plasmodium falciparum proliferation (AID 504749); further: nearly all actives have a fitted effect of over 60% in size; further: potency means the concentration at half of the fitted maximal effect
- assayContext: P. falciparum in erythrocytes, SYBR Green DNA, 72 h; series mostly up to 12.8 µM
Inconclusive results are not listed. Calls of active or inactive are those of the source. Calls come from the whole dose curve; as a rule, active = well fitted inhibition curve with a large enough effect; inconclusive = small, poorly fitted or top-dose-only effect; inactive = flat fitted curve, though single readings scatter.
observedProperty: Potency

Example molecules with recorded Potency:
molecule="CCC(C)C(=O)OC1CCC=C2C=CC(C)C(CCC3CC(O)CC(=O)O3)[C@@H]21 (stereo not given in full)" observedproperty=Potency reported=inactive
molecule="CCCC(=O)O[C@]1(C(=O)CO)CCC2[C@@H]3CCC4=CC(=O)CC[C@]4(C)C3C(O)C[C@]21C (stereo not given in full)" observedproperty=Potency reported=inactive
molecule=C[C@@H](CNC1CCCCC1)OC(=O)c1ccccc1 observedproperty=Potency reported="2.28 µM (active)"
molecule=CO[C@]1(NC(=O)[C@H](C(=O)O)c2ccc(O)cc2)C(=O)N2C(C(=O)O)=C(CSc3nnnn3C)CO[C@H]21 observedproperty=Potency reported=inactive

Please look at the following molecule next.
Exercise: Look up Potency: CC(C)C1CCC(C(=O)NC(Cc2ccccc2)C(=O)O)CC1 (stereo not given)
Solution: inactive

* * *

- System: PAD
- testName: qHTS profiling for inhibitors of Plasmodium falciparum proliferation (AID 504749); further: nearly all actives have a fitted effect of over 60% in size
- assayContext: P. falciparum in erythrocytes, SYBR Green DNA, 72 h; series mostly up to 12.8 µM
Inconclusive results are not listed. Calls of active or inactive are those of the source. Calls follow the shape of the dose curve; as a rule, active = well fitted inhibition curve with a large enough effect; inconclusive = small, poorly fitted or top-dose-only effect; inactive = flat fitted curve, though single readings scatter.
observedProperty: outcome

molecule=C[C@H](CCC(=O)O)[C@H]1CC[C@@H]2[C@@H]3[C@@H](O)C[C@H]4C[C@@H](O)CC[C@@]4(C)[C@H]3CC[C@@]21C experimentaltarget=PAD reported=inactive
molecule=COc1c(O[C@H]2O[C@@H](CO)[C@@H](O)[C@@H](O)[C@@H]2O)cc2c(c1OC)-c1ccc(SC)c(=O)cc1[C@H](NC(C)=O)CC2 experimentaltarget=PAD reported=inactive
molecule="CC[C@@]12CCCN3CCc4c(n(c5ccccc45)[C@](O)(C(=O)OC)C1)C32 (stereo partly drawn)" experimentaltarget=PAD reported=inactive

* * *

- experimentalTarget: Rap guanine nucleotide exchange factor 4 (Homo sapiens) (UniProt Q8WZA2)
- Sequence (Q8WZA2 whole entry, looked up): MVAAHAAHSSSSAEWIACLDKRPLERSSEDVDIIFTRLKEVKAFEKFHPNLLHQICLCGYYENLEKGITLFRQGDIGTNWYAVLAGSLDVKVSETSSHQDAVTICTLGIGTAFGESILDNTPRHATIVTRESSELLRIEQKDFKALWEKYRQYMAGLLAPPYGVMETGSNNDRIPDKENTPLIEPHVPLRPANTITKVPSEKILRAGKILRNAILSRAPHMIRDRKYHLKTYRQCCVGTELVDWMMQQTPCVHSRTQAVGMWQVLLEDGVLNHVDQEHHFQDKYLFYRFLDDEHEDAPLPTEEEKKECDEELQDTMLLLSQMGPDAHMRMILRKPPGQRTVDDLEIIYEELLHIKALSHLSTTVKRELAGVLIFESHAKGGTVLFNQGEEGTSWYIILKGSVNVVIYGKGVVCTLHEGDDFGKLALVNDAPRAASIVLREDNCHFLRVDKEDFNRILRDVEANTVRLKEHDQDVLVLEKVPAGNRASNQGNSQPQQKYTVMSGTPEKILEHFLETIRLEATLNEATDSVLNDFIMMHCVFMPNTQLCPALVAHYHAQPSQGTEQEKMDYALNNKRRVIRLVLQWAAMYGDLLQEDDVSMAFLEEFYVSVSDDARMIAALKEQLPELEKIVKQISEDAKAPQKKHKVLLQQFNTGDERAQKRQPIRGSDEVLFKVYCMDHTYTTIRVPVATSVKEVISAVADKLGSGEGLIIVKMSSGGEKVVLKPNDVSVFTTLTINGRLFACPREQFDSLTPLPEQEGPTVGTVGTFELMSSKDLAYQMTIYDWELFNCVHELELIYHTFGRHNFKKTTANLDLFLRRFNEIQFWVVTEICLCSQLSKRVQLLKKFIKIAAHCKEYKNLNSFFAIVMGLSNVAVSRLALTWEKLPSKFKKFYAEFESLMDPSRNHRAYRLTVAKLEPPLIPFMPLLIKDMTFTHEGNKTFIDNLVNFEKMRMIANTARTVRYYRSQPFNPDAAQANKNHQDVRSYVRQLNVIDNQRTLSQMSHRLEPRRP
- testName: Confirmatory qHTS for antagonist of cAMP-regulated guanine nucleotide exchange factor 4 (EPAC2) (AID 1645885); further: nearly all actives have a fitted effect of over 25% in size
- assayContext: EPAC2 Rap1B-BODIPY-GDP exchange fluorescence, biochemical; series mostly up to 12.7 µM
Inconclusive results are not listed. The source made the active and inactive calls. Calls follow the shape of the dose curve; as a rule, active = well fitted inhibition curve with a large enough effect; inconclusive = small, poorly fitted or top-dose-only effect; inactive = no such curve, though single readings can be large or run the other way.
Give your call using only these classes: active, inactive

Example results:
molecule=Cc1nn(-c2ccccc2)c(Cl)c1/C=C1\SC(=S)NC1=O experimentaltarget="Rap guanine nucleotide exchange factor 4 (Homo sapiens) (UniProt Q8WZA2)" grouplabel=inactive
molecule=COC(=O)c1ccc2nc(-c3ccccc3)c(Cc3ccc(C)cc3)n2c1 experimentaltarget="Rap guanine nucleotide exchange factor 4 (Homo sapiens) (UniProt Q8WZA2)" grouplabel=inactive
molecule="CC1(C(=O)NS(=O)(=O)c2ccc(F)cc2F)CCN1C(=O)C1(c2ccc(Cl)cc2)CCC1 (stereo unspecified)" experimentaltarget="Rap guanine nucleotide exchange factor 4 (Homo sapiens) (UniProt Q8WZA2)" grouplabel=inactive
molecule=Cc1ccc(S(=O)(=O)/N=C2\C=C(Nc3cccc(C(=O)O)c3)C(=O)c3ccccc32)c(C)c1 experimentaltarget="Rap guanine nucleotide exchange factor 4 (Homo sapiens) (UniProt Q8WZA2)" grouplabel=inactive

Exercise: GET /call?item= CCOC(=O)C1CCCN(c2c(NCCN3CCCCC3C)c(=O)c2=O)C1 (stereo unspecified) returns the recorded outcome of this test.
Solution: inactive

Exercise: GET /call?item= CCOC(=O)C1=C(N)OC2=C(C(=O)CC(C)(C)C2)C1c1ccc(CC)s1 (stereo unspecified) returns the recorded outcome of this test.
Solution: inactive

Exercise: GET /call?item= CCc1ccc(S(=O)(=O)Nc2cc3c(cc2C)n(C)c(=O)n3C)cc1 returns the recorded outcome of this test.
Solution: inactive

Exercise: GET /call?item= COc1cccc(Cn2c(=O)cc(C)c3c(C)nn(C)c32)c1 returns the recorded outcome of this test.
Solution: inactive

Exercise: GET /call?item= O=C(NCCCn1ccnc1)c1cc(-c2cccnc2)nc2ccc(Br)cc12 returns the recorded outcome of this test.
Solution: inactive

Exercise: GET /call?item= Cc1ccc(C(=O)Nc2ccc(N3CCOCC3)c3nonc23)cc1[N+](=O)[O-] returns the recorded outcome of this test.
Solution: inactive

Exercise: GET /call?item= CCC1CCCCN1CCCNC(=O)c1csc2c1CCCCC2 (stereo unspecified) returns the recorded outcome of this test.
Solution: inactive

Exercise: GET /call?item= O=C1/C(=C/C=C/c2ccco2)SC(=S)N1NS(=O)(=O)c1ccccc1 returns the recorded outcome of this test.
Solution: inactive

Exercise: GET /call?item= COc1cc(S(=O)(=O)Nc2ccccc2C)ccc1Cl returns the recorded outcome of this test.
Solution: inactive

Exercise: GET /call?item= O=c1oc2ccccc2nc1/C=C(O)/C=C\c1ccccc1 returns the recorded outcome of this test.
Solution: inactive

Exercise: GET /call?item= CCc1noc(C)c1C(=O)N1CCCSC1=Nc1ccccc1C(C)C returns the recorded outcome of this test.
Solution: inactive

Exercise: GET /call?item= CC1CC1C(=O)OCC(=O)NNC(=O)COc1ccc(Br)cc1 (stereo unspecified) returns the recorded outcome of this test.
Solution: inactive

Exercise: GET /call?item= Cc1cccc(Cn2cc(SCC(=O)Nc3nccs3)c3ccccc32)c1 returns the recorded outcome of this test.
Solution: inactive

Exercise: GET /call?item= O=c1oc(-c2ccccc2)c(-c2ccccc2)c2ccccc12 returns the recorded outcome of this test.
Solution: inactive

Exercise: GET /call?item= COc1ccc(N(C)C(=O)c2oc(=O)c3ccccc3c2-c2ccc(C)cc2)c(OC)c1 returns the recorded outcome of this test.
Solution: inactive

Exercise: GET /call?item= CCc1cccc2cc3c(N)c(C(=O)Nc4ccc(S(=O)(=O)N5CCCC5)cc4)sc3nc12 returns the recorded outcome of this test.
Solution: active

Exercise: GET /call?item= CN1CCS/C1=C/C=C1\SC(=S)N(CC(=O)O)C1=O returns the recorded outcome of this test.
Solution: inactive

Exercise: GET /call?item= CCc1nnc(NS(=O)(=O)c2ccc(Nc3ccc([N+](=O)[O-])c4nonc34)cc2)s1 returns the recorded outcome of this test.
Solution: inactive

Exercise: GET /call?item= Cc1ccc2c(c1)c1c3n2CCN(C(=O)C2CC2)C3CCC1 (stereo unspecified) returns the recorded outcome of this test.
Solution: active

Exercise: GET /call?item= Cc1ccc(-c2cc3ccccc3nc2N2CCOCC2)cc1 returns the recorded outcome of this test.
Solution: inactive

Exercise: GET /call?item= CC(=O)C[C@H]1SC[C@@H](C(C)C)N1S(=O)(=O)c1ccc(C)cc1 returns the recorded outcome of this test.
Solution: inactive

Exercise: GET /call?item= CC(Oc1ccccc1)C(=O)Nc1nnc(S(=O)(=O)N2CCCCC2)s1 (stereo unspecified) returns the recorded outcome of this test.
Solution: inactive

Exercise: GET /call?item= Cc1ccc(N2NC(=O)/C(=C\c3cc4c(cc3[N+](=O)[O-])OCO4)C2=O)cc1C returns the recorded outcome of this test.
Solution: inactive
